experiment: TD Phase (Groups 1 and 3): plasma and ocular tissue concentrations and pharmacokinetics of Compound 18 and its metabolite Compound 4 after once daily ocular instillation of Compound 18 nanosuspension for 7 days; type: in vivo, New Zealand white rabbits; conditions: male, New Zealand white, rabbit, retina, other: ocular instillation (eye drop), 0.798 mg/kg/day, TD Phase, Group 3, 4 h, Mean; read-out: Final Compound 4 Retina Conc.
endpoint_label: concentration at 4 h (ng/g)
The answer is to be given in ng/g; state only the numeric part.

Query string: May I ask what concentration at 4 h has been recorded for CCCc1nn(C)c2c(=O)[nH]c(-c3cc(S(=O)(=O)N4CC(CCCO)C4)ccc3OCC)nc12 ?
Result string: 21.8

----------
assay: TD Phase (Groups 1 and 3): plasma and ocular tissue concentrations and pharmacokinetics of Compound 18 and its metabolite Compound 4 after once daily ocular instillation of Compound 18 nanosuspension for 7 days; assay type: in vivo, New Zealand white rabbits; conditions: male, New Zealand white, rabbit, lens, topical, 2 mg/day, TD Phase, Group 1, 1 h, Mean; read-out: Final Compound 18 Lens Conc.
endpoint_label: concentration at 1 h (ng/g)
The answer is to be given in ng/g; state only the numeric part.

Query string: May I ask what concentration at 1 h has been recorded for CCCc1nn(C)c2c(=O)[nH]c(-c3cc(S(=O)(=O)N4CC(CCCO[N+](=O)[O-])C4)ccc3OCC)nc12 ?
Result string: 0

----------
test: PK Phase (Group 2): plasma concentrations and pharmacokinetics of Compound 18 and its metabolite Compound 4 after once daily ocular instillation of Compound 18 nanosuspension for 7 days; type: in vivo, New Zealand white rabbits; settings: male, New Zealand white, rabbit, plasma, topical or ocular, 0.8 mg/kg, plasma, Day 7, Compound 18 0.8 mg/kg ocular instillation; animal 207667
Provide the recorded Tmax for the entries that follow.
The answer is to be given in h; state only the numeric part.

Query string: May I ask what Tmax has been recorded for CCCc1nn(C)c2c(=O)[nH]c(-c3cc(S(=O)(=O)N4CC(CCCO[N+](=O)[O-])C4)ccc3OCC)nc12 ?
Result string: 1

Query string: May I ask what Tmax has been recorded for CCCc1nn(C)c2c(=O)[nH]c(-c3cc(S(=O)(=O)N4CC(CCCO)C4)ccc3OCC)nc12 ?
Result string: 1

----------
Provide the recorded AUC(0-t) for the entries that follow.
assay: PK Phase (Group 2): plasma concentrations and pharmacokinetics of Compound 18 and its metabolite Compound 4 after once daily ocular instillation of Compound 18 nanosuspension for 7 days; format: in vivo, New Zealand white rabbits; conditions: male, New Zealand white, rabbit, plasma, topical or ocular, 0.8 mg/kg, plasma, Day 1, Compound 18 0.8 mg/kg ocular instillation; animal 207665; read-out: AUC0-24
The answer is to be given in ng·h/mL; state only the numeric part.

Query string: May I ask what AUC(0-t) has been recorded for CCCc1nn(C)c2c(=O)[nH]c(-c3cc(S(=O)(=O)N4CC(CCCO)C4)ccc3OCC)nc12 [Compound 4] ?
Result string: 0.321

Query string: May I ask what AUC(0-t) has been recorded for CCCc1nn(C)c2c(=O)[nH]c(-c3cc(S(=O)(=O)N4CC(CCCO[N+](=O)[O-])C4)ccc3OCC)nc12 [Compound 18] ?
Result string: 0.018

----------
assay: TD Phase (Groups 1 and 3): plasma and ocular tissue concentrations and pharmacokinetics of Compound 18 and its metabolite Compound 4 after once daily ocular instillation of Compound 18 nanosuspension for 7 days; assay type: in vivo, New Zealand white rabbits; conditions: male, New Zealand white, rabbit, optic nerve, other: ocular instillation (eye drop), 0.798 mg/kg/day, TD Phase, Group 3, 2 h, Mean; read-out: Final Compound 18 Optic Nerve Conc.
endpoint_label: concentration at 2 h (ng/g)
The answer is to be given in ng/g; state only the numeric part.

Query string: May I ask what concentration at 2 h has been recorded for CCCc1nn(C)c2c(=O)[nH]c(-c3cc(S(=O)(=O)N4CC(CCCO[N+](=O)[O-])C4)ccc3OCC)nc12 ?
Result string: 378
